Assay: Inhibition of Influenza A virus H1N1 Neuraminidase
experimental endpoint: IC50 (nM)
API: value field is a number in nM; no unit string.

Inquiry: Determine its reported IC50: `CCC(CC)O[C@@H]1C=C(C(=O)O)C[C@H](NCc2ccc(Sc3ccccc3)cc2)[C@H]1NC(C)=O`
Reply text: 5.6
